- System: KM12 colon
- protocol-details: NCI tumour cell line growth inhibition, 48 h
Where a SMILES comes first, the peptide text is derived from it. [ ]: non-standard residue; d: D form. pGlu = O=C1CC[CH](C(=O)O)N1
So I've got a bunch of molecules here, and I need their TGI values.

Prompt: What value of TGI on KM12 colon does O=C1CC(O)CC(=O)C1=C(O)CCCCCCCCCCc1ccccc1 (stereo not given) have?
Completion: > 100 µM

Prompt: Entry `C=C(CN1C(=O)CN(C)C1=O)c1ccc(C(=O)Nc2ccccc2N)cc1` please
Completion: > 100 µM

Prompt: Entry `CNC(=O)Nc1nc2ccc([N+](=O)[O-])cc2[nH]1` please
Completion: > 100 µM

Prompt: Entry `O=C(O)Cc1c(-c2ccc([N+](=O)[O-])cc2)c(=O)oc2cc(O)ccc12` please
Completion: 93.5 µM

Prompt: Entry `CC(=O)OC/C=C/[C@H](O[Si](C)(C)C(C)(C)C)[C@@H](O)/C=C/COC(C)=O` please
Completion: > 100 µM

Prompt: Entry `CC[C@H](CCCC[C@H]1CC[C@@H]2CC(=O)C[C@H]12)OC` please
Completion: > 100 µM

Prompt: Entry CCNC(=O)C1CCCN1C(=O)C(CCCN=C(N)N)NC(=O)C(CC(C)C)NC(=O)C(CC(C)C)NC(=O)C(Cc1ccc(O)cc1)NC(=O)C(CO)NC(=O)C(Cc1c[nH]c2ccccc12)NC(=O)C(Cc1cnc[nH]1)NC(=O)C1CCC(=O)N1 (stereo not given) ([pGlu]HWSYLLRP-NHEt; configuration not given here) please
Completion: > 100 µM

Prompt: Entry BrC1=CCC23CC=C(Br)[C@H]4CC2(COC3)C[C@@H]1O4 (stereo not given in full) please
Completion: > 100 µM

Prompt: Entry `CCc1cccc(C(C)(C)C)c1NC(=S)N/C=C(/C#N)C(N)=O` please
Completion: > 100 µM

Prompt: Entry `CN1CCC2(CC1)ONC1=NCCN12` please
Completion: > 100 µM

Prompt: Entry `C[C@]12CC[C@@H]3c4ccc(O)cc4CC[C@H]3[C@@H]1CC[C@@H]2OP(=O)(O)O` please
Completion: > 100 µM

Prompt: Entry `C=CCN=c1sc2c(n1NC(=O)c1cc3ccc1CCc1ccc(cc1)CC3)C(=O)c1ccccc1C2=O` please
Completion: 8.8 µM

Prompt: Entry `CCOC(=O)c1c(C)nc2c(c1N)CC(=O)N2Cc1ccc(OC)cc1` please
Completion: > 100 µM

Prompt: Entry `CCOC(=O)c1cc(=O)c2ccnc3c2n1CCS3` please
Completion: > 100 µM

Prompt: Entry `CCOC(=O)c1nn2c(nc1=O)sc1ccc3ccccc3c12` please
Completion: > 100 µM

Prompt: Entry `COc1cc(C(=O)/C=C/c2ccc(OCC#N)cc2)cc(OC)c1OC` please
Completion: 32 µM

Prompt: Entry `Cc1cc(C)n(-c2nsc3ccccc23)n1` please
Completion: > 100 µM

Prompt: Entry C/C=C(\C)C(=O)NC1=CC[C@@]2(C)C(=CCC3C2CC[C@@]2(C)C3CC[C@@H]2C(C)N(C)C)C1=O (stereo not given in full) please
Completion: 13.7 µM

Prompt: Entry `CN1Cc2cc3cc4c(cc3nc2N(C)C1)OCCO4` please
Completion: > 100 µM

Prompt: Entry `N.N.N.N.[Co+3].[N-]=[N+]=[N-].[N-]=[N+]=[N-].[N-]=[N+]=[N-]` please
Completion: > 100 µM

Prompt: Entry `COC12C=C/C(=C(/C(=O)OCc3cncnc3)C(=O)CCCCCCCCC3(OC)C=C/C(=C(/C(=O)OCc4cncnc4)C(=O)CCCCCCCC1)O3)O2` please
Completion: 1.28 µM

Prompt: Entry `CC1=C(C(=O)Nc2cc(=O)n(C)c(=O)n2C)C(c2ccco2)C(C(=O)Nc2cc(=O)n(C)c(=O)n2C)=C(C)N1` please
Completion: > 100 µM

Prompt: Entry `O=C(Oc1cccc(F)c1OC(=O)c1cccc(O)c1)c1cccc(O)c1` please
Completion: > 100 µM

Prompt: Entry COc1ccc(C23C(=O)c4ccccc4N2O[C@H]2C(=O)N(c4ccccc4)C(=O)[C@H]23)cc1 (stereo not given in full) please
Completion: > 100 µM

Prompt: Entry O=C(O)CCC(=O)N1c2ccccc2CC1c1c[nH]c2ccccc12 (stereo not given) please
Completion: > 100 µM

Data provenance is PubChem BioAssay (NCI).
